Target: hTRPA1 (Homo sapiens)
Sequence (O75762 whole entry): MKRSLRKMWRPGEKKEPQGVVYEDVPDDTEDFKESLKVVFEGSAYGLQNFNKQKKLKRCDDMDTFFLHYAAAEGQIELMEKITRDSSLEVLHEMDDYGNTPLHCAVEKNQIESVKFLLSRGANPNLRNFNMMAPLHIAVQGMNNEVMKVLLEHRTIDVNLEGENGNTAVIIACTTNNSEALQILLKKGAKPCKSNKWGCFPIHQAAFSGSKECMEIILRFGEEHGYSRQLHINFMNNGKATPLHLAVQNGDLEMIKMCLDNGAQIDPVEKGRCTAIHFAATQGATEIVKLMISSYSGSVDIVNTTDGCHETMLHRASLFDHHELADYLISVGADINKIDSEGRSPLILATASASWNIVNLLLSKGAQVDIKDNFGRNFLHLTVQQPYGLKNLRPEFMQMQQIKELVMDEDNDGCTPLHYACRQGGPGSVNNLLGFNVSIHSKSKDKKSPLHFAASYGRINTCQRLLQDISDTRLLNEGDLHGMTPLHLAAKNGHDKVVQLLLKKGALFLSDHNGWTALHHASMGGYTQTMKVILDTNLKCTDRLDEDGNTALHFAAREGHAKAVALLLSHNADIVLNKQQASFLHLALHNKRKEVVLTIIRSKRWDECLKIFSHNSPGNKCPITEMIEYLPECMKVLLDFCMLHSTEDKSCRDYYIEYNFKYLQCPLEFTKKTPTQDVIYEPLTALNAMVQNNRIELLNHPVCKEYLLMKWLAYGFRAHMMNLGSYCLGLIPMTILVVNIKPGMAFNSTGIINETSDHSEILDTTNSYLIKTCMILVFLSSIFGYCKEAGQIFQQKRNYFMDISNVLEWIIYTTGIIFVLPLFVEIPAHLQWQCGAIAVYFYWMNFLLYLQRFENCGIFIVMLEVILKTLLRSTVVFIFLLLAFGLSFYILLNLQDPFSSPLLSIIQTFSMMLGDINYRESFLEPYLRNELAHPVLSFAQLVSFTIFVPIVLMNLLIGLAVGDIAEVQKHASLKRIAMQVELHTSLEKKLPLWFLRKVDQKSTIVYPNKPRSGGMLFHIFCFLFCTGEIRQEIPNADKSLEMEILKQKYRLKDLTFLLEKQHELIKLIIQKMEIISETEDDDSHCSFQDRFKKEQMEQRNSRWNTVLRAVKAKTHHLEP
Experiment: whole-cell patch clamp of HEK293 cells expressing hTRPA1
pEC50: −log10 of the molar value.
Measure: pEC50

* C/C=C(/C=O)[C@@H](CC=O)CC(=O)OCCc1ccc(O)cc1 [OC, (−)-oleocanthal] | 5.55
